Where do these numbers come from? They come from the supplement of paper PMC10567573.

# Test: protein stability index of a GFP-peptide fusion (GPS, HEK-293T) (PSI 1-6); higher = more stable;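 further: 24-mer peptide tiles fused after GFP, lentivirally expressed, FACS-sorted into six equal bins by GFP/DsRed ratio, decoded by Illumina sequencing, PSI is the read-weighted mean bin number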
# Conditions used: treatment: MLN4924 1 uM, 8 h; c terminus: a fixed tail appended
Entries and their protein stability index values follow.
// response body must contain only the number

Illustrative cases are given below, each with its answer.
Entry sequence	protein stability index
EIDLDSMRNLKASLENSLREVEAR [KRT18]	4.23
IKEVIFMSDKYHDSDEATAARLLF [DCTD]	2.62
KSALGAMGQWQLEVGDPAPLGAGN [DPCD]	3.96
PATTVTSPNSTPAKTIDTSPPVDL [SNAP91]	5.25
SDVVDWLYHNVEGFTDRREARKYA [DVL3]	3.53
SSPQGKSGPEAARAGGWVSGEEFY [PKD2L1]	4.54
LAIKAITSSAKVDMTFEEEAQLLQ [FKBP8]	3.29
ALATVSLLSLVTFTFLSAKCLQGN [PCDHGC5]	3.16
DSFPEGPERLHAIKEQLIQEGLLD [HDAC6]	4.76
IDYYTETKILQERAVLGANDPEKN [NSDHL]	5.02

Item under review: NDPSVNSQAQETTIIASNAEEAEI [TOR1AIP2] . Reported protein stability index? 5.59

Item FRRSLHDPDGLVATYISEVHEHDG [APMAP] has what recorded protein stability index? 4.01

Sample ILNSMNSLRKSNTLCDVTLRVEQK [KLHL12] — what was its protein stability index? 2.9

###

# Test: protein stability index of a GFP-peptide fusion (GPS, HEK-293T) (PSI 1-6); higher = more stable
# Conditions used: treatment: DMSO; c terminus: a fixed tail appended
Value type: protein stability index
// no unit string in output, number only

Entry sequence	protein stability index
DQTALSLEECLRLLEATCPFGENA [NFE2L1]	3.31
MGFVPHNGSLYGQASSERLGLDNR [ADAMTSL2]	3.59
TSAAYRYYIDDVFHALVREIRRKE [RIT1]	2.16
LTCDALTELLAKITNTDVDCLKAC [CCND2]	2.37

Look up protein stability index for this sequence: ASTEADKRLSRFDIEMSMRGDIFE [NLN] 4.02

Field request: protein stability index | item: TIPLFVQLLYSPIENIQRVAAGVL [CTNNB1] 2.77

Request the reported protein stability index associated with PLSDDHDEKYGVPSLEELGFDTDG [CRY1] 5.58

Need protein stability index of ITNQEELWKMKPRRNLEEDDYLHK [STEAP1] , thanks. 4.22

###

# Test: protein stability index of a GFP-peptide fusion (GPS, HEK-293T) (PSI 1-6); higher = more stable
# Conditions used: treatment: MLN4924 1 uM, 8 h; c terminus: a fixed tail appended
Each entry belongs to exactly one class, chosen by where its protein stability index falls: low value (below 3), medium value (3 to below 4), high value (4 or more)

Please review the entries below; each comes with its answer.
Entry sequence	Group
NYQVFQKVTDHATTALLHYQLPQM [MED27]	low value
RADLVFIIDSSRSVNTHDYAKVKE [MATN2]	low value
VGPAEPTLVNFHLKRSIPQVSPVR [CPN1]	medium value
ERMRNSRDRLLNRYRQAGSSGPGN [RPAIN]	high value
TRRVTFEADENENITVVKGIRLSE [CHCHD3]	high value
NTTEELEALITDPDEMRMQALLIR [FEM1A]	medium value
FLESTDSFNNELKRLCGLKVEVDM [SMARCE1]	high value
DIDKKHLVLLRDGRTLIGFLRSID [LSM1]	low value

Category of AASEAGRAMHLMKKREKQREQMEQ [FAM50A] : high value

Textbook exercise: identify the category of the sequence given here, FLEEAHEWNQKRARKAMRNGISPI [N4BP2L1] , according to its measured value. medium value

Class (by measured protein stability index) for EQPHGRSRRREQSSSRNSHLVQHQ [ZNF8] high value

###

# Test: protein stability index of a GFP-peptide fusion (GPS, HEK-293T) (PSI 1-6); higher = more stable
# Conditions used: treatment: MLN4924 1 uM, 8 h; c terminus: a fixed tail appended
Value type: protein stability index

Examples with their reported protein stability index follow.
Entry sequence	Value type	Reading
YLESETETTEAIDDEGWLHSGDLG [ACSBG2]	protein stability index	5.5
AAARPSSCRRKQEDDRDGLLAERE [TMEM106C]	protein stability index	5.3
WNQILDPWVYILLRKAVLKNLYKL [PTGFR]	protein stability index	2.03
RKSSKLIMELTGGGQESSGLNLGK [MYOZ1]	protein stability index	3.98
IKTAVNLPLERDAESFLLKSPIAP [CDC25B]	protein stability index	3.14

Turning now to a further sequence:
Dear colleague, I am looking for the recorded protein stability index of the following sequence: QERPRPEPGRLGSSSPASVTTEQL [PXN] 5.12

###

# Test: protein stability index of a GFP-peptide fusion (GPS, HEK-293T) (PSI 1-6); higher = more stable
# Conditions used: treatment: DMSO; c terminus: a fixed tail appended
Value type: protein stability index
The answer should be a number; do not append a unit.

Return reported protein stability index; argument: GGGPSATEWACILRRKTPRHKQPT [C6orf223] 3.57

Item under review: YVQTVDFMRTDNTCVNLLLEASNY [KLHL13] . Reported protein stability index? 2.6

###

Each entry below carries its recorded protein stability index.
# Test: protein stability index of a GFP-peptide fusion (GPS, HEK-293T) (PSI 1-6); higher = more stable
# Conditions used: treatment: DMSO; c terminus: a fixed tail appended
Just the number, please.

Reference set, count: 4
Entry sequence	protein stability index
VYPRPPEPREFSSRNFGVRNQGNF [ZC2HC1C]	3.24
VLMCGFPFLLLFLGNFFTTLRVVH [TMEM120A]	2.95
KCLQGNADGDGGGGQCCRRQDSPS [PCDHGC5]	5.25
AILRVIRLVRVFRIFKLSRHSKGL [KCNA1]	2.28

Can you look up the measured protein stability index of CMVGLLLIALLTWGYIRYSGQYRE [ATL3] for me? 2.95

Dear colleague, I am looking for the recorded protein stability index of the following sequence: AKLVPSEREASPSNSCQDSTDTES [IKZF1] 5.41

What measured protein stability index goes with AGSKVKDMAGDWHWALRVTPGLGV [SPNS1] ? 2.07

###

# Test: protein stability index of a GFP-peptide fusion (GPS, HEK-293T) (PSI 1-6); higher = more stable
# Conditions used: treatment: MLN4924 1 uM, 8 h; c terminus: a fixed tail appended
Answer not met if protein stability index is under 3, and met if it is 3 or more.

Entry sequence	Group
KIGDTKRNTPIEALCENFPEEMAT [CSNK1G1]	met
CYSSRPLLCWSVWWALSTCGYFQV [SLC19A2]	met
ITTLRVPVLRPMDLMVEATPRRVF [PPP2R2B]	not met

Kindly determine if protein stability index recorded for MREQYEAMAERNRRDAEEWFHAKS [KRT13] is above or exactly 3. met

Say whether DINREQLNDIFHLLKSHTNVLSVN [TPH1] shows protein stability index of 3 or more. not met

Entry FIDTYSDVGRYIDHYAAIKKAWDD [FBXO3] : is its protein stability index no less than 3? not met

###

# Test: protein stability index of a GFP-peptide fusion (GPS, HEK-293T) (PSI 1-6); higher = more stable
# Conditions used: treatment: MLN4924 1 uM, 8 h; c terminus: native
Note to self: class = bucket of protein stability index, per 1 (below 3), 2 (3 to below 4), 3 (4 or more)

Band assignment needed for HSVLQGFIPLFQKFRLTGFRKTD [TMEM40] please. 1

Any idea which band ELENLAAMDLELQKIAEKFSQRG [CHGB] is in? 2

Dear colleague, I would appreciate it if you could identify the bin for LETNQQHFHALCHSLLVSTHVPR [M1AP] and reply at your convenience. 2

Which protein stability index category applies to CAPCPRRSEPVVQCQYPSGAEAG [IRX6] here? 1

Hello team, could you let me know which band the following sequence falls into: DMKVNPIQGLASKWDYEKNEWKK [COX4I1] 3

Which bin, given its protein stability index, does RGWLLTSGTDKVIKLWDMTPVVS [WDFY2] occupy? 1

Band for the recorded protein stability index of FSEETEKKFEHFSGLLNNQLSPQ [LOXL2] ? 3

// bin(item) where item = QALLDVKNIAHQNKFGEDMPHPH [HDAC6] 3

Please let me know in which category the item GLMTQSSLETHHYVDCGGNSTAI [TMEM106C] belongs. 2

Returns: class label. Input: YKKGIIRKPDISQRLVYQFVHPI [SPDEF] 1

Dear colleague, I would appreciate it if you could identify the bin for ESLVPFIVNDNITNNFFRFLCMT [DYNC2LI1] and reply at your convenience. 1

# bin lookup: classify LTASRQSFRMAMGNPSEFFVDVM [DVL3] by its protein stability index 1
